System: SK-MEL-2 melanoma
protocol notes: NCI-60 one-dose screen, 48 h
conditions: 10 µM unless noted
This is part of a sample that, as a whole, favours compounds with a hit. Of some 83,000 tested, about 20% had one in any assay. Calls of active or inactive are those of the source. The calls were made as follows: active = growth percent below 10; inactive = the rest.
Your reply should match one of these outcome classes. active, inactive

Use these answered entries as a reference point.
chemical_smiles=Cn1cc(-c2csc(-c3ccc(Cl)cc3)n2)c2cccnc21 class_assignment=active
chemical_smiles=Fc1ccc(-c2nn(-c3ccccc3)cc2-c2nc3ccccc3o2)cc1 class_assignment=inactive
chemical_smiles=CCOC(=O)/C=C1\S/C(=N\Nc2cc(=O)[nH]c3ccc(Cl)cc23)N(c2ccccc2)C1=O class_assignment=inactive
chemical_smiles=O=CC1(C2(C=O)c3ccccc3-c3ccccc32)c2ccccc2-c2ccccc21 class_assignment=active
chemical_smiles=Cc1cc(=O)[nH]c2c(C#N)cnn12 class_assignment=inactive

Now take the following compound into account.
Q. Outcome logged for CC(C)c1ccc(COCc2cc(CN3CCCC3)c(O)c3ncccc23)cc1 in this assay:
A. active

Data credit: PubChem BioAssay (NCI)
